test system: 15-PGDH luciferase fusion construct in LS174T reporter cell line; experiment: 15-PGDH-luciferase fusion gene reporter induction, LS174T cells; assay type: cell-based; conditions: Homo sapiens, read-out: Ls174T-SC1 reporter activity, % ([…]), […], Table 18, read-out: Ls174T-SC1 reporter activity, % (2.5 μM)
Label met when activation at […] >= 10%; otherwise not met.

[[record]]
molecularstring = "O=C(CN(c1ccccc1)S(=O)(=O)c1ccccc1)Nc1cccnc1"
targetentity = "15-PGDH luciferase fusion construct in LS174T reporter cell line"
classlabel = "not met"

[[record]]
molecularstring = "COc1ccc(OC)c(N(CC(=O)Nc2cccnc2)S(=O)(=O)c2ccc(C)cc2)c1"
targetentity = "15-PGDH luciferase fusion construct in LS174T reporter cell line"
classlabel = "met"

[[record]]
molecularstring = "COc1ccc(OC)c(N(CC(=O)Nc2ccc(Cl)c(Cl)c2)S(=O)(=O)c2ccccc2)c1"
targetentity = "15-PGDH luciferase fusion construct in LS174T reporter cell line"
classlabel = "not met"


Entry "COc1ccccc1N(CC(=O)Nc1cccnc1)S(=O)(=O)c1ccccc1" : is its activation at […] no less than 10%?
met

Dear colleague, could you confirm whether "COc1cccc(N(CC(=O)Nc2cccnc2)S(=O)(=O)c2ccccc2)c1" has activation at […] at or above 10%?
not met

Check if activation at […] >= 10% (inclusive). Item: "COc1ccc(OC)c(N(CC(=O)Nc2cccnc2)S(C)(=O)=O)c1"
not met

* * *

test system: A549 cells; assay: PGE2 levels in the medium of IL1-beta stimulated A549 cells; assay type: cell-based; conditions: media of IL-1beta stimulated A549 cells;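 further: PGE2 in the collected culture medium quantified by enzyme immunoassay (ELISA), with data drawn from three independent experiments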
readoutKind: Decrease PGE-2 (IL-1beta-A549, %)

Example cases with answers are listed next.
[[record]]
molecularstring = "COc1ccc(OC)c(N(CC(=O)Nc2cc(C)no2)S(=O)(=O)c2ccccc2)c1"
result = "22.33%"

[[record]]
molecularstring = "COc1ccc(OC)c(N(CC(=O)Nc2nccs2)S(=O)(=O)c2ccccc2)c1"
result = "36.76%"

[[record]]
molecularstring = "COc1ccc(OC)c(N(CC(=O)Nc2ccc(C)nc2)S(=O)(=O)c2ccccc2)c1"
result = "−16.79%"

[[record]]
molecularstring = "COc1ccc(OC)c(N(CC(=O)Nc2ccncc2)S(=O)(=O)c2ccccc2)c1"
result = "−47.55%"


For the molecule shown here, "COc1ccc(S(=O)(=O)N(CC(=O)Nc2cccnc2)c2cc(OC)ccc2OC)cc1" , give the reported Decrease PGE-2 (IL-1beta-A549, %).
80.46%

GET /values?readout=Decrease PGE-2 (IL-1beta-A549, %)&item= "COc1ccc(OC)c(N(CC(=O)Nc2cccnc2)S(=O)(=O)c2ccc(Br)cc2)c1"
47.78%

Query: Decrease PGE-2 (IL-1beta-A549, %); subject: "COc1ccc(S(=O)(=O)N(CC(=O)Nc2ccncc2)c2cc(OC)ccc2OC)cc1"
69.40%

Fill in the blank: the reported Decrease PGE-2 (IL-1beta-A549, %) of "CCOC(=O)CN(c1cc(OC)ccc1OC)S(=O)(=O)c1ccccc1" is ____.
−1.01%

Given the entry "COc1ccc(OC)c(N(CC(=O)Nc2cccnc2)S(=O)(=O)c2ccccc2)c1" , report its measured Decrease PGE-2 (IL-1beta-A549, %).
41.96%

// Decrease PGE-2 (IL-1beta-A549, %) lookup, key: "COc1ccc(OC)c(N(CC(=O)N2CCOCC2)S(=O)(=O)c2ccccc2)c1"
31.33%
